B1: HDV Ribozyme (parent)
chain: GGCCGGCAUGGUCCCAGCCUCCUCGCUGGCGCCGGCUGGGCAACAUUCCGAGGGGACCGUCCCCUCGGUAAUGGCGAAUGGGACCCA

# Variants of: B1
# procedure_text: self-cleavage, relative activity (ratio to wild type); higher = more cleavage; co-transcriptional
Tick Fulfilled if self-cleavage is 0.3 or greater. Tick Not fulfilled if self-cleavage is less than 0.3.

stdin: Confirm if self-cleavage reported for the variant G31A C85A is 0.3 or above.
stdout: Fulfilled

stdin: Item U27C C63G with self-cleavage of 0.3 or above?
stdout: Fulfilled

stdin: Quick check, self-cleavage >= 0.3? G67A G81U
stdout: Not fulfilled

stdin: hey, is self-cleavage for this one >= 0.3? G28A A71C
stdout: Not fulfilled

stdin: Is it the case that U9G C86A has self-cleavage reaching or exceeding 0.3?
stdout: Fulfilled

stdin: In plain terms: is recorded self-cleavage at least 0.3 for G31A C66U ?
stdout: Fulfilled

stdin: Evaluate G28C G68C : self-cleavage at minimum 0.3?
stdout: Not fulfilled

stdin: Could you verify whether the entry U47G G67C shows self-cleavage of no less than 0.3?
stdout: Fulfilled

stdin: Evaluate G5A A8C : self-cleavage at minimum 0.3?
stdout: Not fulfilled

stdin: Given the entry C44U C58A , answer whether its self-cleavage meets or surpasses 0.3.
stdout: Fulfilled

stdin: Does the reported self-cleavage for G10A A16U fall at or above the 0.3 mark?
stdout: Fulfilled

stdin: Tell me whether self-cleavage is at least 0.3 here: C36A U79G
stdout: Not fulfilled

stdin: Is it the case that A16C U65G has self-cleavage reaching or exceeding 0.3?
stdout: Fulfilled

stdin: Exam item: decide whether the reported self-cleavage for C3U C32A is at least 0.3.
stdout: Not fulfilled

stdin: I'd appreciate it if you could say whether U23G U27A has self-cleavage at least equal to 0.3.
stdout: Fulfilled

stdin: Reported self-cleavage at or above 0.3? C49G C58G
stdout: Fulfilled

stdin: Is self-cleavage for G31C C61A at or above 0.3?
stdout: Fulfilled

stdin: Exam item: decide whether the reported self-cleavage for U12A C24G is at least 0.3.
stdout: Not fulfilled

stdin: Threshold query (self-cleavage >= 0.3) on G31C U47G
stdout: Fulfilled

stdin: Confirm if self-cleavage reported for the variant G1A G17A is 0.3 or above.
stdout: Not fulfilled

stdin: Say whether G35A C61G shows self-cleavage of 0.3 or more.
stdout: Fulfilled

stdin: Record G50C C62G ; criterion: self-cleavage no lower than 0.3. Met?
stdout: Not fulfilled

stdin: Please indicate if the recorded self-cleavage for C26G C84G meets or exceeds 0.3.
stdout: Fulfilled

stdin: Could you please find out whether C7A G25A has self-cleavage that meets 0.3 or exceeds it?
stdout: Not fulfilled

stdin: Is it the case that A8U G40C has self-cleavage reaching or exceeding 0.3?
stdout: Not fulfilled

stdin: Kindly determine if self-cleavage recorded for G2U C24U is above or exactly 0.3.
stdout: Not fulfilled

stdin: Confirm if self-cleavage reported for the variant G10A U23A is 0.3 or above.
stdout: Fulfilled

stdin: Tell me whether self-cleavage is at least 0.3 here: G17U G80U
stdout: Not fulfilled

stdin: Threshold query (self-cleavage >= 0.3) on G55U C75U
stdout: Not fulfilled

stdin: Hi, just wondering whether G6C C7U shows self-cleavage of 0.3 or higher.
stdout: Fulfilled

stdin: Please indicate if the recorded self-cleavage for G11U C32A meets or exceeds 0.3.
stdout: Not fulfilled

stdin: Could you verify whether the entry G59C A87G shows self-cleavage of no less than 0.3?
stdout: Fulfilled

stdin: Could you tell me if the measured self-cleavage of C14A C32A reaches 0.3 or more?
stdout: Not fulfilled

stdin: Is the recorded value of self-cleavage equal to or greater than 0.3 for this variant? G6U G11C
stdout: Not fulfilled

stdin: Check the entry G17A G35A : does self-cleavage equal or exceed 0.3?
stdout: Not fulfilled

stdin: # bool: self-cleavage of C44G C84G >= 0.3
stdout: Fulfilled

stdin: Record C18G C62A ; criterion: self-cleavage no lower than 0.3. Met?
stdout: Not fulfilled
